Tested Target: T1, Soluble CDCP1 extracellular domain (CDCP1-ECD) (SEQ ID NO:30) fused to Streptavidin Binding Protein (SBP) (human, UniProt Q9H5V8 30-663)
T1 construct: also called SBP-CDCP1-ECD
T1 sequence: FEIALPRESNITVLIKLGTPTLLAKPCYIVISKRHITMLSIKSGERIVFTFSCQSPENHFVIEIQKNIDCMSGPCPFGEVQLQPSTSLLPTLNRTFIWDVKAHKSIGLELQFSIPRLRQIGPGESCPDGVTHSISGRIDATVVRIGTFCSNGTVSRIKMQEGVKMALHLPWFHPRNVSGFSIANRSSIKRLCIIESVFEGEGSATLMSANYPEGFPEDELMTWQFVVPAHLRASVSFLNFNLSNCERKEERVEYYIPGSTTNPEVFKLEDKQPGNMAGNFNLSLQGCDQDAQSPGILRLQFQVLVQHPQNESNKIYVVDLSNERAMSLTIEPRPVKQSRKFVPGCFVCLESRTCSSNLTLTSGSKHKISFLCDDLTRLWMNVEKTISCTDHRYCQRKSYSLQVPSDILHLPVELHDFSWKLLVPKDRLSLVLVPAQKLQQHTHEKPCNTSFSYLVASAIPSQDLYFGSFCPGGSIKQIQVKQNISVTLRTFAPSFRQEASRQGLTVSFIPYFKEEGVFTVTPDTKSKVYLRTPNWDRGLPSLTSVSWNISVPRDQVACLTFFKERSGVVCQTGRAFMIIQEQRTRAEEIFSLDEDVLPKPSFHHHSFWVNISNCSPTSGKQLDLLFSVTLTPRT
Run Description: ELISA on captured SBP-CDCP1-ECD, ratio relative to chimeric CUB4 (chHC4)
Test Readout: relative binding ratio
The answer should be written as a number, with no unit following it.

Binder | relative binding ratio
Humanized CUB4 Antibody No. 47 (antibody, human IgG1, V domains shown, Only variable domains are tied to the antibody; also called humanized anti-CDCP1 antibody 47; hHC4-H / hLC-K) VH: EVQLVESGGGLVQPGGSLRLSCAASGFTFNSYGMSWVRQAPGKGLEWVATISSGGSYKYYVDSVKGRFTISRDNAKNSLYLQMNSLRAEDTAVYYCARHPDYDGVWFAYWGQGTLVTVSS VL: EIVLTQSPATLSLSPGERATLSCRASSSVFYLHWYQQKPGQAPRLWIYDTSKLASGIPARFSGSGSGTDFTLTISSLEPEDFAVYYCQQWNSNPPTFGGGTKVEIK | 0.46
hHC4-a / hLC4-a (antibody, V domains shown) VH: EVQLVESGGGLVKPGGSLRLSCAASGFTFNSYGMSWVRQAPGKGLEWVSTISSGGSYTYYPDSVKGRFTISRDNAKNSLYLQMNSLRAEDTAVYYCARHPDYDGVWFAYWGQGTLVTVSS VL: EIVLTQSPATLSLSPGERATLSCSVSSSVFYVHWYQQKPGQAPRLLIYDTSKLASGIPARFSGSGSGTDFTLTISSLEPEDFAVYYCQQWNSNPPTFGGGTKVEIK | 0.38

Then there is this binder:
(Q) What measured relative binding ratio goes with hHC4-04 / hLC4-L2 (antibody, V domains shown) VH: EVQLLESGGGLVQPGGSLRLSCAASGFTFNSYGMSWVRQAPGKGLEWVSTISSGGSYTYYPDSVKGRFTISRDNSKNTLYLQMNSLRAEDTAVYYCARHPDYDGVWFAYWGQGTLVTVSS VL: EIVLTQSPATLSLSPGERATMSCSVSSSVFYLHWYQQKPGQAPRLWIYDTSKLASGIPARFSGSGSGTDFTLTISSLEPEDFAVYYCQQWNSNPPTFGGGTKVEIK ?
(A) 0.67
